Consider the following molecules; for each one, report its degree of increase.
test system: angiogenesis of the chick CAM; assay: CAM angiogenesis inhibition, various steroids alone or with DS4152; assay type: in vivo; conditions: ID50 alone vs. in the presence of 10 ng of DS4152
Give bare numbers, in times.

Answered cases to consult:
C[C@]12CC[C@@H]3c4ccc(O)cc4CC[C@H]3[C@@H]1CC[C@@H]2O [17β-Estradiol]
7.0
C[C@H]1C[C@H]2[C@@H]3CCC4=CC(=O)C=C[C@]4(C)[C@@]3(F)[C@@H](O)C[C@]2(C)[C@@]1(O)C(=O)CO [Betamethasone]
16.0
C[C@]12CC[C@@H](O)C[C@H]1CC[C@@H]1[C@@H]2CC[C@@]2(C)[C@H]1CC[C@]2(O)C(=O)CO [Tetrahydro S]
100.0

Alright, here's another molecule for you.
[Q] Fill in reported degree of increase for this entry: C[C@]12CCC(=O)C=C1CC[C@@H]1[C@@H]2[C@@H](O)C[C@@]2(C)[C@H]1CC[C@]2(O)C(=O)CO [Hydrocortisone]
[A] 6.9

====

test system: angiogenesis of the chick CAM; assay: CAM angiogenesis inhibition, various steroids alone or with DS4152; assay type: in vivo; details: in the presence of 10 ng of DS4152
Under this convention, 1 (yes) denotes ID50, used in combination with DS4152 strictly below 0.2 μg/embryo and 0 (no) denotes ID50, used in combination with DS4152 at or above 0.2 μg/embryo.

Worked examples follow.
CC(=O)O[C@]1(C(C)=O)CC[C@H]2[C@@H]3C[C@H](C)C4=CC(=O)CC[C@]4(C)[C@H]3CC[C@@]21C [Medroxyprogesterone acetate]
0 (no)
CC(=O)OCC(=O)[C@@]1(O)CC[C@H]2[C@@H]3CCC4=CC(=O)CC[C@]4(C)[C@H]3C(=O)C[C@@]21C [Cortisone acetate]
1 (yes)
C[C@]12C=CC(=O)C=C1CC[C@@H]1[C@@H]2[C@@H](O)C[C@@]2(C)[C@H]1CC[C@]2(O)C(=O)CO
1 (yes)

[Q] Here's an entry: C[C@]12CC[C@@H](O)C[C@H]1CC[C@@H]1[C@@H]2CC[C@@]2(C)[C@H]1CC[C@]2(O)C(=O)CO [Tetrahydro S] . Is its ID50, used in combination with DS4152 below 0.2 μg/embryo?
[A] 1 (yes)

[Q] Record C[C@]12CCC(=O)C=C1CC[C@@H]1[C@@H]2[C@@H](O)C[C@@]2(C)[C@H]1CC[C@]2(O)C(=O)CO [Hydrocortisone] : is its ID50, used in combination with DS4152 strictly below 0.2 μg/embryo?
[A] 1 (yes)

[Q] Could you please tell me whether ID50, used in combination with DS4152 recorded for `C[C@]12CC[C@@H]3c4ccc(O)cc4CC[C@H]3[C@@H]1CC[C@@H]2O` is less than 0.2 μg/embryo?
[A] 0 (no)

[Q] Please determine if `C[C@@]12CCC[C@H]1[C@@H]1CC[C@H]3CCCC[C@]3(C)[C@H]1CC2` is below 0.2 μg/embryo in terms of ID50, used in combination with DS4152.
[A] 0 (no)

====

tested on: angiogenesis of the chick CAM; experiment: CAM angiogenesis inhibition, various steroids alone or with DS4152; type: in vivo; settings: ID50 alone vs. in the presence of 10 ng of DS4152
measured-property: degree of increase (times)
Numbers only, in times.

Some molecules with recorded degree of increase:
C[C@]12C=CC(=O)C=C1CC[C@@H]1[C@@H]2[C@@H](O)C[C@@]2(C)[C@H]1CC[C@]2(O)C(=O)CO [Prednisolone]
16.3
C[C@H]1C[C@@H]2[C@H]([C@@H](O)C[C@@]3(C)[C@H]2CC[C@]3(O)C(=O)CO)[C@@]2(C)C=CC(=O)C=C12 [6α-Methylprednisolone]
38.3
C[C@]1(O)CC[C@H]2[C@@H]3CCC4=CC(=O)CC[C@]4(C)[C@@]3(F)[C@@H](O)C[C@@]21C [Fluoxymesterone]
10.3
CC(=O)[C@H]1CC[C@H]2[C@@H]3CCC4=CC(=O)CC[C@]4(C)[C@H]3CC[C@]12C [Progesterone]
2.1

For every item in the list below, what is its measured degree of increase?
1. CC(=O)OCC(=O)[C@@]1(O)CC[C@H]2[C@@H]3CCC4=CC(=O)CC[C@]4(C)[C@H]3C(=O)C[C@@]21C [Cortisone acetate]
2. CC(=O)O[C@]1(C(C)=O)CC[C@H]2[C@@H]3C[C@H](C)C4=CC(=O)CC[C@]4(C)[C@H]3CC[C@@]21C [Medroxyprogesterone acetate]
3. C[C@@]12CCC[C@H]1[C@@H]1CC[C@H]3CCCC[C@]3(C)[C@H]1CC2 [5α-Androstane]

[A]
7.1
2.7
8.0
